- Test System: CYP1A2 (Homo sapiens, UniProt P05177)
- Sequence (P05177 whole entry): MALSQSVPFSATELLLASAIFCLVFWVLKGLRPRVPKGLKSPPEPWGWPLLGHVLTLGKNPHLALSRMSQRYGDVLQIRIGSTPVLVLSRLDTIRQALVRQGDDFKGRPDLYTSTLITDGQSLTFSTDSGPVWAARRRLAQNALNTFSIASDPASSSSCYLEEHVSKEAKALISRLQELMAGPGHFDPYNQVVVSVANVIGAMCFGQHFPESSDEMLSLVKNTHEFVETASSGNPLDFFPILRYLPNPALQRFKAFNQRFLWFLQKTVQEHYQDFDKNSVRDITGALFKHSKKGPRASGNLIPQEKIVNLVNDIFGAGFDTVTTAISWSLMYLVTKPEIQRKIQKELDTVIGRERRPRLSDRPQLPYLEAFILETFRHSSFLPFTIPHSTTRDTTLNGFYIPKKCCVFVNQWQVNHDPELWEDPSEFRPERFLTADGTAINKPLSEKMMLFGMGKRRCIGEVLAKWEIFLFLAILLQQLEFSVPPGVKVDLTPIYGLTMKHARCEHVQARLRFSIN
- Method: in vitro
Measurement Name: inhibition at 35 min, 66.5 µM (%)
# value in %; strip the unit string

Measured inhibition at 35 min, 66.5 µM, Cc1nc2c([nH]1)c(=O)n(C)c(=O)n2Cc1ccco1 [furafylline] : 77

---

- Test System: CYP1A2 (Homo sapiens)
- Method: in vitro
Measurement Name: inhibition at 35 min, 1.33 µM (%)
# value in %; strip the unit string

Measured inhibition at 35 min, 1.33 µM, `Cc1nc2c([nH]1)c(=O)n(C)c(=O)n2Cc1ccco1` : 64

---

- Test System: CYP1A2 (Homo sapiens, UniProt P05177)
- Method: in vitro
Measurement Name: inhibition at 35 min, 13.3 µM (%)
# value in %; strip the unit string

Measured inhibition at 35 min, 13.3 µM, `Cc1nc2c([nH]1)c(=O)n(C)c(=O)n2Cc1ccco1` : 75

Values from patent US20020182749A1
